Where these numbers come from: ChEMBL document CHEMBL1145210

- Test system: SW-620
- testSummary: In vitro Inhibition on growth of human SW 620 colon carcinoma cell line
- Assay type: functional, cell-based

inputSmiles: CC(C)/N=C(/N)c1ccc2c(c1)sc1c(O)nc3ccc(Br)cc3c12
relationSign: =
IC50, µM: 13.2

inputSmiles: COC(=O)c1ccc2c(Cl)c(C(=O)Nc3ccc(C(=N)NC(C)C)cc3)sc2c1
relationSign: =
IC50, µM: 3.67

inputSmiles: CC(C)/N=C(/N)c1ccc2c(Cl)c(C(=O)Nc3ccc(Br)cc3)sc2c1
relationSign: =
IC50, µM: 4.18

inputSmiles: COc1ccc2c(Cl)c(C(=O)Nc3ccc(C(=N)NC(C)C)cc3)sc2c1
relationSign: =
IC50, µM: 3.86

inputSmiles: Cc1ccc(NC(=O)c2sc3cc(/C(N)=N\C(C)C)ccc3c2Cl)cc1
relationSign: =
IC50, µM: 3.54

inputSmiles: CC(C)/N=C(/N)c1ccc2nc(O)c3sc4cc(C#N)ccc4c3c2c1
relationSign: >
IC50, µM: 100

inputSmiles: Cc1ccc2nc(O)c3sc4cc(/C(N)=N\C(C)C)ccc4c3c2c1
relationSign: =
IC50, µM: 22.7

inputSmiles: COc1ccc2c(c1)sc1c(O)nc3ccc(C(=N)NC(C)C)cc3c12
relationSign: =
IC50, µM: 20.6

inputSmiles: CC(C)/N=C(/N)c1ccc2c(c1)sc1c(O)nc3ccc(/C(N)=N\C(C)C)cc3c12
relationSign: ≥
IC50, µM: 100

inputSmiles: Cc1ccc2c(c1)sc1c(O)nc3ccc(/C(N)=N\C(C)C)cc3c12
relationSign: =
IC50, µM: 7.57

----------
- Test system: HeLa
- testSummary: In vitro Inhibition on growth of human HeLa cervical carcinoma cell line
- Assay type: functional, cell-based
pIC50: −log10 of the molar value.

inputSmiles: CC(C)/N=C(/N)c1ccc2nc(O)c3sc4cc(Br)ccc4c3c2c1
measurementTarget: HeLa
pIC50: 5.77
--
inputSmiles: COc1ccc(NC(=O)c2sc3cc(C(=N)NC(C)C)ccc3c2Cl)cc1
measurementTarget: HeLa
pIC50: 5.23
--
inputSmiles: COC(=O)c1ccc2c(Cl)c(C(=O)Nc3ccc(C(=N)NC(C)C)cc3)sc2c1
measurementTarget: HeLa
pIC50: 5.65
--
inputSmiles: COc1ccc2c(c1)sc1c(O)nc3ccc(C(=N)NC(C)C)cc3c12
measurementTarget: HeLa
pIC50: 5.63
--
inputSmiles: Cc1ccc2c(Cl)c(C(=O)Nc3ccc(/C(N)=N\C(C)C)cc3)sc2c1
measurementTarget: HeLa
pIC50: 5.52
--
inputSmiles: Cc1ccc2nc(O)c3sc4cc(/C(N)=N\C(C)C)ccc4c3c2c1
measurementTarget: HeLa
pIC50: 5.19
--
inputSmiles: N#Cc1ccc2c(Cl)c(C(=O)Nc3ccccc3)sc2c1
measurementTarget: HeLa
pIC50: 6.46
--
inputSmiles: Cc1ccc(NC(=O)c2sc3cc(/C(N)=N\C(C)C)ccc3c2Cl)cc1
measurementTarget: HeLa
pIC50: 5.63
--
inputSmiles: COC(=O)c1ccc(NC(=O)c2sc3cc(C#N)ccc3c2Cl)cc1
measurementTarget: HeLa
pIC50: 4.62

----------
- Test system: SW-620
- testSummary: Percentage of apoptosis induced by compound in SW 620 cell line at 5 uM concentration after 72 h
- Type: functional, Homo sapiens

inputSmiles: CC(C)/N=C(/N)c1ccc2nc(O)c3sc4ccccc4c3c2c1
Apoptosis, %: 9
--
inputSmiles: CC(C)/N=C(/N)c1ccc2c(c1)sc1c(O)nc3ccc(Br)cc3c12
Apoptosis, %: 9
--
inputSmiles: COC(=O)c1ccc2nc(O)c3sc4cc(C(=N)NC(C)C)ccc4c3c2c1
Apoptosis, %: 6
--
inputSmiles: COC(=O)c1ccc(NC(=O)c2sc3cc(C#N)ccc3c2Cl)cc1
Apoptosis, %: 6
--
inputSmiles: Cc1ccc2c(c1)sc1c(O)nc3ccc(/C(N)=N\C(C)C)cc3c12
Apoptosis, %: 15
--
inputSmiles: COC(=O)c1ccc2c(c1)sc1c(O)nc3ccc(C(=N)NC(C)C)cc3c12
Apoptosis, %: 7
